PROCEDURE_DETAILS: NCI Yeast Anticancer Drug Screen. Data for the CLN2oe strain (AID 163);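 further: 0% = growth of vehicle-only control cultures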
TEST_CONDITIONS: S. cerevisiae CLN2oe strain, at 100.0 µM, stronger effect = higher value
Compounds without any hit were thinned out: in the full panel of roughly 79,000, 15% have a hit. The source made the active and inactive calls. No stated cut-off is given here; in the data, active means growth inhibition above about 70%; inactive means the rest.
ENDPOINT: growth inhibition

                                    compound       meas_value
 0  CC/C(=C(\c1ccccc1)c1ccc(OCC[N+](C)(C)C)cc1)c1ccccc1     99% (active)
 1  O=C(NOC(=O)c1ccc([N+](=O)[O-])cc1)c1ccc(Cl)cc1     98% (active)
 2  COc1c2c(c3c(c1CCC(=O)O)OC(C)(C)C=C3)OC(C)(C)C=C2     99% (active)
 3          COc1cc([N+](=O)[O-])c2ncccc2c1Br  -11% (inactive)
 4  Cc1cc(OCc2nc(N)nc(N)c2-c2ccc(Cl)c(Cl)c2)ccc1[N+](=O)[O-]    6% (inactive)
 5  CC(=O)Oc1ccc2c(c1)Cc1cc(N3C(=O)C=CC3=O)ccc1-2     96% (active)
 6  Cn1c(-c2ccc(/C=N\N3CCN(/N=C/c4ccc(-c5c[n+]6ccsc6n5C)cc4)CC3)cc2)c[n+]2ccsc12     76% (active)
 7      CC1=COC2=C(C)C(=O)C(=O)c3c(C)ccc1c32     95% (active)
 8  COc1ccc2nc3cccc([N+](=O)[O-])c3c(NCCNCCN(C)C)c2c1   12% (inactive)
 9     O=C(O)CNC(c1ccccc1)(c1ccccc1)c1ccccc1     98% (active)
10  O=S(=O)(NC1CCCC(c2ccccc2)C1)c1ccccc1 (stereo unspecified)     95% (active)
11  COc1cccc(/C=C2\S/C(=N/Nc3nc(-c4ccc([N+](=O)[O-])cc4)cs3)NC2=O)c1O     93% (active)
12  CC1CCC(C2=CSC3CCCCC3N2)CC1 (stereo unspecified)   45% (inactive)
13  O=C1c2cccc3cccc(c23)C(=O)N1CCNCCN1C(=O)c2cccc3cccc(c23)C1=O   -1% (inactive)
14  CN(C)CCNCCCNc1c2ccccc2nc2cccc([N+](=O)[O-])c12     81% (active)
15        CC(=O)/C=C/c1cc([N+](=O)[O-])ccc1O     98% (active)
16  CCOP(=O)(OCC)/C(C#N)=C/c1ccc(-c2ccc(F)cc2F)o1   -1% (inactive)
17  O=C(Oc1ccc([N+](=O)[O-])cc1)c1ccc([N+](=O)[O-])cc1   10% (inactive)
18  C=C(C(=O)OC)N1C(=O)CC(C)C1=O (stereo unspecified)   38% (inactive)
19          CC(C)=CCC/C(C)=C/CN1C(=O)C=CC1=O     99% (active)
20  O=C(O)C1CCCCC1c1c2ccc(=O)cc-2oc2cc(O)ccc12 (stereo unspecified)     94% (active)

###

Reported growth inhibition values for the following molecules.
PROCEDURE_DETAILS: NCI Yeast Anticancer Drug Screen. Data for the sgs1 mgt1 strain (AID 161);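 further: 0% = growth of cultures given vehicle only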
TEST_CONDITIONS: S. cerevisiae sgs1 mgt1 strain, at 50.0 µM, stronger effect = higher value
This is part of a sample that, as a whole, favours compounds with a hit. Of some 79,000 tested, about 15% had one in any assay.
ENDPOINT: growth inhibition (%)

In [3]: df
Out[3]:
                                    molecule           endpoint  meas_value
 0  CCCCCCNCCCNc1c2ccccc2nc2cccc([N+](=O)[O-])c12  growth inhibition        74.3
 1            O=C(O)c1ccc2cc(Cl)c3ccccc3c2c1  growth inhibition        93.9
 2       O=C1c2ccccc2-c2ccc(N=Cc3ccccc3)cc21  growth inhibition        36.9
 3  N#CSCC1COc2ccccc2O1 (stereo unspecified)  growth inhibition        90.6
 4              O=C1c2cccc3cccc(c23)C(=O)N1O  growth inhibition        90.3
 5  Cc1cccc2c1C1c3c(C)cccc3C(CC(=O)O)CC1CC2 (stereo unspecified)  growth inhibition        99.5
 6  CC(C(=O)N1C(=O)N(C(=O)C(C)C(O)c2ccccc2)C2CCCCC21)C(O)c1ccccc1 (stereo unspecified)  growth inhibition        97.5
 7  O=C(O)c1c2ccc(Cl)cc2nc2[nH]c(=O)[nH]c(=O)c12  growth inhibition        27.6
 8  COc1cc2c(cc1O)[C@H](C)C(c1ccccc1OC)O2 (stereo partly specified)  growth inhibition          68
 9  CC(C)N(CCCNc1c2ccccc2nc2cccc([N+](=O)[O-])c12)C(C)C  growth inhibition        94.5
10                CCc1c(Cl)c(C)c(Cl)c(O)c1Cl  growth inhibition        93.8
11  CC(C)NCCCNc1c2ccccc2nc2cccc([N+](=O)[O-])c12  growth inhibition        80.8
12  CN1C(=O)C(CC(=O)O)NC1=S (stereo unspecified)  growth inhibition        58.2
13  CCCCCCC1OCC(O)C(OCCCC)O1 (stereo unspecified)  growth inhibition        11.2
14  C[N+](C)([O-])CCCNc1c2ccccc2nc2cccc([N+](=O)[O-])c12  growth inhibition        83.2
15  COC(=O)C1CCCCC1C(=O)Nc1ccccc1 (stereo unspecified)  growth inhibition        15.4
16  NC(=S)N1N=C2c3ccccc3CC[C@H]2[C@@H]1c1ccc(Cl)cc1  growth inhibition        84.8
17  [N-]=[N+]=NC1(c2ccccc2)C(=O)Nc2ccccc2C1=O (stereo unspecified)  growth inhibition        67.7
18  N#CC1OB(O)c2ccccc21 (stereo unspecified)  growth inhibition        27.1
19              O=C(CCSC1=NCCCN1)c1ccc(F)cc1  growth inhibition          91
20  CC/C(=C(\c1ccccc1)c1ccc(OCC[N+](C)(C)C)cc1)c1ccccc1  growth inhibition        91.3
21  O=C1C(=O)c2cccc([N+](=O)[O-])c2-c2ccccc21  growth inhibition        98.9
22  O=c1cccccc1[O-].O=c1cccccc1[O-].O=c1cccccc1[O-].[Eu+3]  growth inhibition        89.7
23  CCCNC(=O)OCc1c(COC(=O)NCCC)c(-c2ccc(Cl)c(Cl)c2)n2c1CCC2  growth inhibition        50.7
24  CCC[CH2][Sn]([CH2]CCC)([CH2]CCC)/[C](=C/[Si](C)(C)c1ccccc1)c1ccc2c(c1)OCO2  growth inhibition        91.8
25  NC(=S)N/N=C1\c2ccccc2CCC1CCC1(O)CCc2ccccc2C1=O (stereo unspecified)  growth inhibition        92.5
26                           CCCCCCCCCCCNC=O  growth inhibition        92.5
27                   CN(C)N=Nc1ccc(N(C)C)cc1  growth inhibition        20.9
28                 O=C1C=C(Br)C(=O)c2ccccc21  growth inhibition        99.2
29  c1cc(-c2sc(-c3ccncc3)c(-c3ccncc3)c2-c2ccncc2)ccn1  growth inhibition        46.8
30                       CCOC(=S)SSSC(=S)OCC  growth inhibition        41.2
31  COc1ccc2nc3cccc([N+](=O)[O-])c3c(NCCNCCO)c2c1  growth inhibition        78.2
32  COC(=O)C1=C(C(=O)OC)CC(n2nnc(C(=O)OC)c2C(=O)OC)=CC1  growth inhibition         0.5
33  O=C1NC(c2cccc(OCc3ccccc3)c2)Nc2ccccc21 (stereo unspecified)  growth inhibition        63.9
34  O=C(NNc1ccccc1)C(CCCCNS(=O)(=O)Cc1ccccc1)NS(=O)(=O)Cc1ccccc1 (stereo unspecified)  growth inhibition        51.5
35  C=COC(=O)N[C@H]1CCc2cc(OC)c(OC)c(OC)c2-c2ccc(SC)c(=O)cc21  growth inhibition          38
36       CSc1nc(-c2ccccc2)nc(=[N+]2CCOCC2)s1  growth inhibition        86.4
37  O=C(CCCN1CCC(Nc2ccc(F)cc2)(c2nnnn2C2CCCCC2)CC1)c1ccc(F)cc1  growth inhibition        50.3
38                         CCCCCCCCNCCCCCCCC  growth inhibition        99.5
39      CC1(C)CC(=O)C(C=NC(=S)C(N)=S)=C(O)C1  growth inhibition        35.5
40           NC(=O)NC1C(c2ccccc2)=C1c1ccccc1  growth inhibition        17.4
